biological target: Voltage-gated potassium channel subunit beta-2 (Rattus norvegicus); test: inhibitors of rat Kvbeta2 reductase activity – biochemical, NADPH fluorescence, primary screen (AID 622); conditions: recombinant KvBeta, 4-cyanobenzaldehyde reduction, at 10 µM, hits give high values;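 note: slope of raw intensity against log time taken from 70 to 1610 s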
Lab note: anything with fluorescence slope at or over -0.4 counts as met; the rest go in not met.

Worked cases, answers included:
CCCc1cc(=O)[nH]c(Nc2ccc(OC)c(Cl)c2)n1	not met
CCOC(=O)c1cc(NC(=O)SCC(=O)O)c(C)nc1C	not met
CCc1nn2c(N3CCOCC3)cc(C)nc2c1-c1ccc(F)cc1	not met
COc1cc(NS(=O)(=O)N2CCCC2)cc(OC)c1OC	not met
CCCOc1ccccc1NC(=O)c1c(-c2ccccc2)noc1C	not met

Ask | # bool: fluorescence slope of CCCC(=O)Nc1ccc2oc(-c3cccnc3)nc2c1 >= -0.4
Reply | met

Ask | Is the recorded value of fluorescence slope equal to or greater than -0.4 for this molecule? COc1ccc(-c2cc(C(F)(F)F)n3nc(C(=O)N4CCOCC4)nc3n2)cc1
Reply | met

---

assay: blockers of RIG-like receptor reporter activation – cell-based, Sendai virus stimulus, luciferase, 10K MLSCN set, TLR/RLR signaling modifier project, primary screen (AID 602276); details: HEK293 RL24 IRF3 luciferase reporter, at 10 µM, hits give high values;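 note: firefly luciferase from ISG56 promoter only with Renilla not read in this screen; 0% = Sendai virus plus DMSO and 100% = medium plus DMSO without virus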
Calls of active or inactive are those of the source.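 How the source made its calls: active means inhibition at or above 50% at 10 µM; inactive means inhibition below 50%.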
PARAMETER: inhibition

Here are 3 compounds together with their reported answers.
Cc1ccc(CCNC(=O)CC2Oc3ccc(C)cc3NC2=O)cc1 (centres undefined)	-18.4% (inactive)
Cc1c(NC(=O)c2ccc(Br)o2)c(=O)n(-c2ccccc2)n1C	9.74% (inactive)
FC(F)(F)c1cc(-c2ccco2)nc(N2CCOCC2)n1	16.2% (inactive)

Attention now turns to another entry.
Ask | Would you kindly share the measured inhibition for Fc1ccc(NCc2nnc(SCc3nnc(-c4ccccc4)o3)n2CC2CCCO2)cc1 (centres undefined) ?
Reply | -28.3% (inactive)

---

target: Voltage-gated potassium channel subunit beta-2 (Rattus norvegicus) (UniProt P62483); assay: inhibitors of rat Kvbeta2 reductase activity – biochemical, NADPH fluorescence, primary screen (AID 622); settings: recombinant KvBeta, 4-cyanobenzaldehyde reduction, at 10 µM, hits give high values;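 note: slope of raw intensity against log time taken from 70 to 1610 s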
Sequence (P62483 whole entry, looked up): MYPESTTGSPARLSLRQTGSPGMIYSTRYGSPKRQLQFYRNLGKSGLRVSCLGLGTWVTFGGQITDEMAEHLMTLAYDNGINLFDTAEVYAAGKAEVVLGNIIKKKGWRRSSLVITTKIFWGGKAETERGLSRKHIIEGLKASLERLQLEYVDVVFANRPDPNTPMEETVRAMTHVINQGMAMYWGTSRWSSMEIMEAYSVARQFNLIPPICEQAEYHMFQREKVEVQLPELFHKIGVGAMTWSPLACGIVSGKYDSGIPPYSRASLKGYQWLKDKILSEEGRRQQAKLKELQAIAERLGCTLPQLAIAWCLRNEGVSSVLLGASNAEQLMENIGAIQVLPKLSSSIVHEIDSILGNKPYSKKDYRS
PARAMETER: fluorescence slope
Write the number on its own, no unit after it.

Ask | Data request, read-out fluorescence slope, for Cc1ccc2c(c1)C1CCCC3C1N2CC(=O)N3Cc1ccccc1 (stereo not drawn)
Reply | -0.498

Ask | fluorescence slope lookup needed for O=C(NCc1ccc(F)cc1)c1cc2ccccn2n1 , thanks.
Reply | -0.601

Ask | Entry CCN(CC)c1ccc2cc(NC(=O)CCC(=O)O)c(=O)oc2c1 has what fluorescence slope?
Reply | -0.0111

Ask | Which fluorescence slope reading was recorded for the compound O=C1c2ccccc2C(Nc2ccc(F)c(Cl)c2)N1Cc1ccco1 (stereo not drawn) ?
Reply | -0.442

---

assay: TLR3 IRF3 reporter activation blockers – cell-based, poly I:C stimulus, luciferase, 10K MLSCN set, primary screen (AID 602277); conditions: HEK293-TLR3 RL24 IRF3 luciferase reporter, at 10 µM, hits give high values
Kind request: treat 30% as inclusive, so inhibition at 30% or higher is True, anything lower is False.

CCc1nc2scc(-c3ccccc3)c2c(=O)n1N	False
Cc1ccc(-c2nc3cnccn3c2Nc2ccc3c(c2)OCO3)o1	True
COc1cc(C(c2sc3nc(C)nn3c2O)N2CC(C)CC(C)C2)cc(OC)c1OC (stereo unspecified)	False
Oc1ccccc1-c1cc(C(F)(F)C(F)F)[nH]n1	False
Cc1cc(NS(=O)(=O)c2ccc(Nc3nc(-c4sc(N)nc4C)cs3)cc2)no1	False

Proceed to the following item.
Ask | Say whether CCOC(=O)N1CCN(C(=O)c2ccc3nc4ccsc4c(=O)n3c2)CC1 shows inhibition of 30% or more.
Reply | True

Every entry's value here was drawn from PubChem BioAssay.
